The measurements presented in this section are drawn from paper PMC10216305.

Listed here are molecules together with their documented tissue to tissue ratio at 4 h.
experiment: in vivo; parameters: species or system mice; details: C57, mouse, iv, 0.037 MBq, total radioactivity, Uptake ratio Tumor/lung
Positions of bridges follow the written chain, without caps; N, C: chain ends. Non-standard residues stand in square brackets, D forms with d. Residues, ends and D or L forms follow the SMILES beside them. *: point of attachment. NOTA = O=C(O)CN1CCN(CC(=O)O)CCN(CC(=O)*)CC1; Nle = CCCC[C@H](N)C(=O)O

Molecule	tissue to tissue ratio at 4 h
CCCC[C@H](NC(=O)CNC(=O)CNC(=O)CN1CCN(CC(=O)O)CCN(CC(=O)O)CC1)C(=O)N[C@H]1CC(=O)NCCCC[C@@H](C(N)=O)NC(=O)[C@H](Cc2c[nH]c3ccccc23)NC(=O)[C@H](CCCNC(=N)N)NC(=O)[C@@H](Cc2ccccc2)NC(=O)[C@H](Cc2c[nH]cn2)NC1=O [^67Cu-NOTA-GGNle-CycMSHhex, ^67Cu-NOTA-GlyGlyNle-CycMSHhex, metal not drawn] ({NOTA}-GG[Nle]DH[dF]RWK-NH2; lactam 4-9)	23.8
CCCC[C@H](NC(=O)COCCOCCNC(=O)CN1CCN(CC(=O)O)CCN(CC(=O)O)CC1)C(=O)N[C@H]1CC(=O)NCCCC[C@@H](C(N)=O)NC(=O)[C@H](Cc2c[nH]c3ccccc23)NC(=O)[C@H](CCCNC(=N)N)NC(=O)[C@@H](Cc2ccccc2)NC(=O)[C@H](Cc2c[nH]cn2)NC1=O [^67Cu-NOTA-PEG2Nle-CycMSHhex, metal not drawn]	38.9

###

Experiment: in vivo
Parameters: species or system mice
Conditions: C57, mouse, iv, 0.037 MBq, total radioactivity
Procedure: All animal studies were conducted in compliance with Institutional Animal Care and Use Committee approval. C57 mice were purchased from Charles River Laboratory (Wilmington, NC). […] The tumor uptake specificity of ^67Cu-NOTA-PEG2Nle-CycMSHhex and ^67Cu-NOTA-GGNle-CycMSHhex was determined by co-injecting 10 μg (6.07 nmol) of unlabeled NDP-MSH. Mice were sacrificed at 0.5, 2, 4, and 24 h post-injection, and tumors and organs of interest were harvested, weighed, and counted. […]
Positions of bridges follow the written chain, without caps; N, C: chain ends. Non-standard residues stand in square brackets, D forms with d. Residues, ends and D or L forms follow the SMILES beside them. *: point of attachment. NOTA = O=C(O)CN1CCN(CC(=O)O)CCN(CC(=O)*)CC1; Nle = CCCC[C@H](N)C(=O)O
Listed here are compounds together with their documented tissue uptake dose at 0.5 h.

Compound	tissue uptake dose at 0.5 h (%ID)
CCCC[C@H](NC(=O)CNC(=O)CNC(=O)CN1CCN(CC(=O)O)CCN(CC(=O)O)CC1)C(=O)N[C@H]1CC(=O)NCCCC[C@@H](C(N)=O)NC(=O)[C@H](Cc2c[nH]c3ccccc23)NC(=O)[C@H](CCCNC(=N)N)NC(=O)[C@@H](Cc2ccccc2)NC(=O)[C@H](Cc2c[nH]cn2)NC1=O [^67Cu-NOTA-GGNle-CycMSHhex, ^67Cu-NOTA-GlyGlyNle-CycMSHhex, metal not drawn] ({NOTA}-GG[Nle]DH[dF]RWK-NH2; lactam 4-9)	1.46
CCCC[C@H](NC(=O)COCCOCCNC(=O)CN1CCN(CC(=O)O)CCN(CC(=O)O)CC1)C(=O)N[C@H]1CC(=O)NCCCC[C@@H](C(N)=O)NC(=O)[C@H](Cc2c[nH]c3ccccc23)NC(=O)[C@H](CCCNC(=N)N)NC(=O)[C@@H](Cc2ccccc2)NC(=O)[C@H](Cc2c[nH]cn2)NC1=O [^67Cu-NOTA-PEG2Nle-CycMSHhex, metal not drawn]	0.83
